Experiment: NCI Yeast Anticancer Drug Screen. Data for the rad50 strain (AID 155);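 further: 0% = growth of vehicle-only cultures of the same strain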
Conditions: S. cerevisiae rad50 strain growth inhibition; at 50.0 µM (retest, dose inferred, filed as 5.0); hits give high values
The panel holds about 79,000 compounds, 15% with a hit somewhere; the sample as a whole holds those more often.
PROPERTY_NAME: growth inhibition (%)
Give a bare numeral; the unit % is implied.

Need growth inhibition of CC(C)C(Br)CC/C(CBr)=C(\Cl)CCl (stereo not drawn) , thanks.
99

Then CCC(c1ccc(O)cc1)C(CC)c1ccc(O)c(CN(C)C)c1 (stereo not drawn) ?
76

Then CCc1ccc(C(=O)O)cc1 ?
-2

Then CCc1nc2c(O)ccc(O)c2nc1C ?
33

Then CCN(CC)CCNc1ccc(OC)c2cccnc12 ?
30

Then CC(=O)NC1=C(Nc2ccc(-c3ccc(NC4=C(NC(C)=O)C(=O)c5ccccc5C4=O)cc3)cc2)C(=O)c2ccccc2C1=O ?
98

Then CCC(C)c1ccc(O)c(C(C)c2ccccc2)c1 (stereo not drawn) ?
70

Then C=C(CN(C)C)C(=O)c1ccccc1 ?
4

Then O=c1c2ccccc2sc2c([N+](=O)[O-])ccc(NCCNCCO)c12 ?
98

Then CCOC(=O)Nc1ccc(SCC2COC(Cn3ccnc3)(c3ccc(Cl)cc3Cl)O2)cc1 (stereo not drawn) ?
91

Then CCCCCN(C(=O)CCl)c1ccccc1 ?
36

Then Cc1ccc2c(c1)[n+]([O-])c(N)n[n+]2[O-] ?
61

Then CC(C)Cn1cnc2c(SCc3ccccc3[N+](=O)[O-])nc(N)nc21 ?
-4

Then CC(=O)OC1C2C3C(C=CC2[C@H]1OC(C)=O)C1C3C=CC2C1C(OC(C)=O)[C@@H]2OC(C)=O (stereo partly drawn) ?
14

Then O=S(=O)(O)CC[S][Sn]([S]CCS(=O)(=O)O)([c]1ccccc1)[c]1ccccc1 (tested in a mixture with another compound) ?
98

Then Nc1cn(C2OC(CC(c3ccccc3)(c3ccccc3)c3ccccc3)C(O)C2O)c(=O)[nH]c1=O (stereo not drawn) ?
99

Then ONC(=Nc1ccccc1)c1ccccc1 ?
73

Then Cc1ccc(S(=O)(=O)NNC(=O)c2sc(-c3nc(C)c(C(=O)NNS(=O)(=O)c4ccc(C)cc4)s3)nc2C)cc1 ?
98

Then CC(NNC(=S)N1CCCC1)c1cc2ccccc2cn1 (stereo not drawn) ?
99

Then CSc1ccc(C(=O)C(=O)c2ccc(SC)s2)s1 ?
11

Then COc1cccc(/C=C(\NC(=O)c2ccccc2)c2nc3ccccc3s2)c1 ?
96

Then CCCN(CCC)CC(O)c1ccc2ccc3ccc(Cl)cc3c2c1 (stereo not drawn) ?
98

Then CCOC(=O)C1CC(C(=O)OCC)C(=O)C1=O (stereo not drawn) ?
96

Then CCC(=O)[O][Bi]([c]1ccccc1)[c]1ccccc1 ?
96

Then O=[N+]([O-])c1ccc(Sc2ccc([N+](=O)[O-])o2)o1 ?
99

Then O=[N+]([O-])c1c[nH]c2ncnc(SCc3ccccc3)c12 ?
98

Then CCCCCCCCCCN1CCN(C(=O)OCC)CC1 ?
68

Then COc1c(O)cc2c(c1O)C(=O)C1=C(CCCC1)C2=O ?
63
